# System: T-47D breast
# Assay Remarks: NCI-60 one-dose screen, 48 h (100 = growth as untreated, 0 = no growth, -100 = all killed)
# Particulars: 10 µM unless noted
About 83,000 compounds went through this panel and 20% of them were active in at least one assay; those are over-represented in the sample as a whole.
In this section, each of the compounds is paired with its reported growth.
Quantity Kind: growth (%)

>  <Compound>
O=S1(=O)NCCN1CCNc1nccc(-c2c(-c3cccc(O)c3)nc3sccn23)n1

>  <Unit Tag>
%

>  <Result Number>
106

$$$$
>  <Compound>
C=C1C(=O)O[C@H]2[C@H]1CC/C(COC(=O)N[C@@H](Cc1c[nH]c3ccccc13)C(=O)OC)=C\CC[C@@]1(C)O[C@@H]21

>  <Unit Tag>
%

>  <Result Number>
-16.9

$$$$
>  <Compound>
O=C1C=CN2C(=O)CC=CC2[C@@H]1O (stereo not given in full)

>  <Unit Tag>
%

>  <Result Number>
90.4

$$$$
>  <Compound>
CN(C)c1nc(-c2cccs2)n2nc(-c3ccco3)cc2n1

>  <Unit Tag>
%

>  <Result Number>
53.5

$$$$
>  <Compound>
CC[C@H](C)[C@H](N)C(=O)O

>  <Unit Tag>
%

>  <Result Number>
104

$$$$

Values were extracted from PubChem BioAssay (NCI).
